This section presents molecules with their documented Potency values.
# target.of.assay: Calcium and integrin-binding protein 1 (Homo sapiens) (UniProt Q99828)
# Sequence (Q99828 whole entry, looked up): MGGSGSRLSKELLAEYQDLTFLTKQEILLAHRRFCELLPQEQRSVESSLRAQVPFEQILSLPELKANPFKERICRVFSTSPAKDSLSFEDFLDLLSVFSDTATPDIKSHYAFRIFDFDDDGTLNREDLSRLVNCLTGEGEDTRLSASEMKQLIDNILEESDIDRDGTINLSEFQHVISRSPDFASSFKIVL
# method: Primary qHTS for Identification of Calcium Integrin Binding Protein 1 (CIB1) Competitor (AID 1508620); also: potency is read from the fitted curve at half-maximal effect
# experimental.context: CIB1-GST / FITC-alphaIIb peptide fluorescence polarization; series mostly up to 114 µM
Inconclusive results are not listed. Activity calls are given as the source filed them. Calls follow the shape of the dose curve; as a rule, active = well fitted inhibition curve with a large enough effect; inconclusive = small, poorly fitted or top-dose-only effect; inactive = flat fitted curve, though single readings scatter.

Examples with their reported Potency follow.
{"columns": ["molecule", "target.of.assay", "measure", "test.value"],
 "data": [
  ["O=c1nc(-c2ccccn2)sc2ccccc12", "Calcium and integrin-binding protein 1 (Homo sapiens) (UniProt Q99828)", "Potency", "28.2 µM (active)"],
  ["O=C(O)CSc1cc(NS(=O)(=O)c2ccc(Br)cc2)c2ccccc2c1O", "Calcium and integrin-binding protein 1 (Homo sapiens) (UniProt Q99828)", "Potency", "44.7 µM (active)"],
  ["Cn1sc(=O)n(Cc2ccccc2)c1=O", "Calcium and integrin-binding protein 1 (Homo sapiens) (UniProt Q99828)", "Potency", "8.91 µM (active)"]
]}

Input: Give recorded Potency. CC1=C(C(=O)OC2CCCCC2)C(c2ccc([N+](=O)[O-])cc2)C2=C(CC(C)(C)CC2=O)N1 (stereo not given)
Output: 17.8 µM (active)

Input: Give recorded Potency. COc1ccc2nc3n[nH]c(C)c3c(NCCOCCO)c2c1
Output: 50.1 µM (active)
